// provenance: patent US5500442A

Measured log10 of IC50, listed per entry.
Test system: Isolated Rat Bladder
Assay: Bladder smooth muscle relaxing activity: inhibition of KCl-enhanced contractions in isolated rat bladder strips
Format: cell-based, Sprague-Dawley rats
Settings: 15 mM KCl, 37 deg. C, read-out: IC50 of Bladder Contraction
measurement label: log10 of IC50 (log10 of the value in µM)

molecule | log10 of IC50
CNc1c(-c2ccc3c(c2)[C@@H](N2Cc4ccccc4C2=O)[C@H](O)C(C)(C)O3)c(=O)c1=O (relative stereo) [Example 7] | 0.21
CC1(C)Oc2ccc(-c3c(O)c(=O)c3=O)cc2[C@@H](N2Cc3ccccc3C2=O)[C@@H]1O (relative stereo) [Example 8] | 1.34
CC1(C)Oc2ccc(-c3c(N)c(=O)c3=O)cc2[C@@H](N2Cc3ccccc3C2=O)[C@@H]1O (relative stereo) [Example 4] | -0.72
CC(C)Oc1c(-c2ccc3c(c2)[C@@H](N2Cc4ccccc4C2=O)[C@H](O)C(C)(C)O3)c(=O)c1=O (relative stereo) [Example 3] | 1.00
Cc1c(-c2ccc3c(c2)[C@@H](N2Cc4ccccc4C2=O)[C@H](O)C(C)(C)O3)c(=O)c1=O (relative stereo) [Example 9] | -0.96

----------
Measured pIC50, listed per entry.
System: Isolated Rat Aortic Tissue
Experiment: Aortic smooth muscle relaxing activity: inhibition of KCl-evoked contracture in isolated rat aortic rings
Format: cell-based, Sprague-Dawley rats
Conditions: isolated rat thoracic aorta rings, 25 mM KCl; read-out: IC50 of Aorta Contraction
pIC50: −log10 of the molar value.

compound | pIC50
CC1(C)Oc2ccc(-c3c(N)c(=O)c3=O)cc2[C@@H](N2Cc3ccccc3C2=O)[C@@H]1O (relative stereo) [Example 4] | 6.77
CC(C)Oc1c(-c2ccc3c(c2)[C@@H](N2Cc4ccccc4C2=O)[C@H](O)C(C)(C)O3)c(=O)c1=O (relative stereo) [Example 3] | 5.94
Cc1c(-c2ccc3c(c2)[C@@H](N2Cc4ccccc4C2=O)[C@H](O)C(C)(C)O3)c(=O)c1=O (relative stereo) [Example 9] | 7.82
CNc1c(-c2ccc3c(c2)[C@@H](N2Cc4ccccc4C2=O)[C@H](O)C(C)(C)O3)c(=O)c1=O (relative stereo) [Example 7] | 6.08
